molecular target: T1, recombinant biotinylated human PAR2 extracellular domain (residues 1-75), N-terminal AviTag, C-terminal Flag … (human, UniProt P55085 26-75, biotin on the AviTag (enzymatic biotinylation)); assay: HTRF competition with Dylight650-Par0067 IgG, IgG
T1 construct: also called Bio-human-PAR2 ECD; human PAR2 ECD; not shown: N-terminal AviTag (Avidity LLC); C-terminal Flag and poly Histidine tags
T1 sequence (P55085 26-75): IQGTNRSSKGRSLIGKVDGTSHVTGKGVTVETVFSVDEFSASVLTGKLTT
I'd appreciate it if you could supply Fold IC50 (pH 6.0 v pH 7.4) values for the items below.
The reply should contain only the number, in fold.

Request: # return recorded Fold IC50 (pH 6.0 v pH 7.4) for entry PaB670048 IgG (antibody, V domains shown, IgG1-TM (L234F, L235E, P331S), human lambda light chain; also called ZZ1KX4-E11) VH: EVQLLESGGGLVQPGGSLRLSCAASGFTFSSYAMNWVRQAPGKGLEWVSTISYSGSLISYADSVKGRFTISRDNSKNTLYLQMNSLRAEDTAVYYCARIHHDPMDHWGQGTLVTVSS VL: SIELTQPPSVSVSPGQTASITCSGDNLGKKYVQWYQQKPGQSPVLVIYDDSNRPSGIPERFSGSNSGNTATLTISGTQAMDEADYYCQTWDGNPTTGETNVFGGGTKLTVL
Result: 8.5

Request: // fetch Fold IC50 (pH 6.0 v pH 7.4) given entry PaB670156 IgG (antibody, V domains shown, IgG1-TM (L234F, L235E, P331S), human lambda light chain) VH: EVQLLESGGGLVQPGGSLRLSCAASGFTFSSYAMNWVRQAPGKGLEWVSTISYSGSLISYADSVKGRFTISRDNSKNTLYLQMNSLRAEDTAVYYCARINHDPMDVWGQGTLVTVSS VL: SIELTQPPSVSVSPGQTASITCSGDNLGKKYVQWYQQKPGQSPVLVIYDDSNRPSGIPERFSGSNSGNTATLTISGTQAMDEADYYCQTWDGHHHTGETNHFGGGTKLTVL
Result: 27.2

Request: Answer with the recorded Fold IC50 (pH 6.0 v pH 7.4) of PaB670141 IgG (antibody, V domains shown, IgG1-TM (L234F, L235E, P331S), human lambda light chain) VH: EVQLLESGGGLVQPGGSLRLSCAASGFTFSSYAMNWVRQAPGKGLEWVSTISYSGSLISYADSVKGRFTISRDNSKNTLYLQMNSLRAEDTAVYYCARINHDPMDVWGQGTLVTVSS VL: SIELTQPPSVSVSPGQTASITCSGDNLGKKYVQWYQQKPGQSPVLVIYDDSNRPSGIPERFSGSNSGNTATLTISGTQAMDEADYYCQTWDGNPTHGETNVFGGGTKLTVL only.
Result: 5.9

Request: Answer with the recorded Fold IC50 (pH 6.0 v pH 7.4) of PaB670152 IgG (antibody, V domains shown, IgG1-TM (L234F, L235E, P331S), human lambda light chain) VH: EVQLLESGGGLVQPGGSLRLSCAASGFTFSSYAMNWVRQAPGKGLEWVSTISYSGSLISYADSVKGRFTISRDNSKNTLYLQMNSLRAEDTAVYYCARIHHDPMDVWGQGTLVTVSS VL: SIELTQPPSVSVSPGQTASITCSGDNLGKKYVQWYQQKPGQSPVLVIYDDSNRPSGIPERFSGSNSGNTATLTISGTQAMDEADYYCHTWDHHHTTGEHNVFGGGTKLTVL only.
Result: 15.1

Request: # return recorded Fold IC50 (pH 6.0 v pH 7.4) for entry PaB670142 IgG (antibody, V domains shown, IgG1-TM (L234F, L235E, P331S), human lambda light chain) VH: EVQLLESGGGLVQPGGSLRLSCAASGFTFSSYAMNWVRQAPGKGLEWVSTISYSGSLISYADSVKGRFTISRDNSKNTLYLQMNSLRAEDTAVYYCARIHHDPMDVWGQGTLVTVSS VL: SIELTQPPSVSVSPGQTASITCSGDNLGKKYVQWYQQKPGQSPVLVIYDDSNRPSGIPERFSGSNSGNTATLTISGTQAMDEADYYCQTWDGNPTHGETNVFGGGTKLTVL
Result: 14
